Attribution: patent US20230158141A1

# Measured On: T1, IL-10R2-Fc/His (UniProt Q08334 20-220, limits assumed)
# T1 sequence (looked up): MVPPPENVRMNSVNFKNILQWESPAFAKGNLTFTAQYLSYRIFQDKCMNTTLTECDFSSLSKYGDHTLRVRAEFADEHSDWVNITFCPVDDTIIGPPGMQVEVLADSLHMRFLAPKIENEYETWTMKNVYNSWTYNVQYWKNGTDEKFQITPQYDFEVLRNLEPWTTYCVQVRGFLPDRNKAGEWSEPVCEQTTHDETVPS
# Protocol Description: ELISA, IL-10R2-Fc/His coated
// values below are reported Binding recovery (>60%)

{"Binder": "IL-10 Asn21Cys-R4-18 (ligand, human, UniProt P22301 19-178, looked up, R4-18 on Cys 21, mature) SPGQGTQSENSCTHFPGNLPCMLRDLRDAFSRVKTFFQMKDQLDNLLLKESLLEDFKGYLGCQALSEMIQFYLEEVMPQAENQDPDIKAHVNSLGENLKTLRLRLRRCHRFLPCENKSKAVEQVKNAFNKLQEKGIYKAMSEFDIFINYIEAYMTMKIRN", "Binding recovery (>60%)": 85.3}
{"Binder": "IL-10 Met22Cys-R4-1 (ligand, human, UniProt P22301 19-178, looked up, R4-1 on Cys 22, mature) SPGQGTQSENSCTHFPGNLPNCLRDLRDAFSRVKTFFQMKDQLDNLLLKESLLEDFKGYLGCQALSEMIQFYLEEVMPQAENQDPDIKAHVNSLGENLKTLRLRLRRCHRFLPCENKSKAVEQVKNAFNKLQEKGIYKAMSEFDIFINYIEAYMTMKIRN", "Binding recovery (>60%)": 80}
